System: 786-0 renal
TEST_NAME: NCI tumour cell line growth inhibition, 48 h
OBSERVED_PROPERTY: TGI (µM)
One number for each entry, in µM.

Hello, I would appreciate it if you could give TGI for each entry below.
1. N#CSc1c[nH]c2cccc(/C=C/C(=O)/C=C(O)/C=C/c3cccc4[nH]cc(SC#N)c34)c12
2. COc1cc2c(cc1O)CCN[C@@]21CS[C@H]2c3c(OC(C)=O)c(C)c4c(c3C(COC1=O)N1C2C2NC(Cc3cc(C)c(OC)c(O)c32)[C@@H]1C#N)OCO4 (some centres undefined)

Result:
1. 2.14
2. 0.162

Hello, I would appreciate it if you could give TGI for each entry below.
1. Nc1nc(NCc2ccccc2)cc(NCc2ccccc2)n1
2. COC(=O)C#CC1(O)C=CC(=O)C=C1

Result:
1: 22.5; 2: 1.82
